test system: SF-295 CNS; test: NCI tumour cell line growth inhibition, 48 h
ASSAY_READOUT: TGI

Please give the measured TGI for this molecule: CC(N=NNc1ccc(-c2nc3ccccc3[nH]2)cc1)C(=O)O (stereo not drawn)
72.1 µM

// lookup TGI for Cc1nc(C(N)=O)c(N)n1CCN1CCN(C(=O)CCCCCCCCCCNC2N=CNc3nc[nH]c32)CC1 (stereo not drawn)
> 100 µM

What TGI value was documented for this molecule, "O=c1[nH]cc(NCCCl)c(=O)[nH]1" ?
> 100 µM

Give the measured TGI of "COc1cc(Cl)cc(=O)c(O)c1OC" .
> 100 µM

# get_value(readout='TGI', item= "C=CCOC(=O)N1c2ccc(O[Si](C)(C)C(C)(C)C)cc2[C@@]23O[C@@]24[C@@H]1C#C/C=C\C#C[C@]3(O)C(OC)(OC)C[C@@H]4C" )
> 100 µM

Record request: TGI value, item "C=CCc1c(Cl)nc(Cl)nc1Cl"
3.94 µM

Look at this molecule and give its reported TGI. O=C(Nc1ccccc1)N(C1=NCC(CI)S1)c1ccc(F)c(F)c1 (stereo not drawn)
> 100 µM

Quick one: TGI for CN(C(=O)/C=C/c1ccccc1)C1C2CN3CCC(O2)C13 (stereo not drawn) ?
> 100 µM

----------
system: NCI-H522 lung; assay: NCI tumour cell line growth inhibition, 48 h
ASSAY_READOUT: TGI

I'd like to know its TGI. The molecule in question is "O=[N+]([O-])c1ccccc1N=Nc1c(O)[nH]c2cccc(C(F)(F)F)c12"
69.3 µM

Fill in: TGI of "C=CCn1c(=O)c(C)cn(COCCO)c1=O" is ___
> 100 µM

TGI lookup needed for "CC(=O)OCc1c2ccccc2c(C)c2c1cc(F)c1ccccc12" , thanks.
25.6 µM

Query: TGI; subject: "Cn1ccnc1CCc1c(Cl)cccc1Cl"
> 100 µM

Please give the measured TGI for this molecule: "O=S1(=O)c2ccccc2Oc2ccc(C(/C=N/O)=N/O)cc21"
26.7 µM

Could you tell me which TGI is on file for "O=C(O)CCc1nc2c(n1-c1ccccc1)C(=O)c1ccccc1C2=O" ?
> 100 µM

Any idea what TGI was measured for "CNC(=S)Nc1ccc(OC)c2ccccc12" ?
> 10 µM

What value of TGI has been reported for the following molecule? CN(C(=O)/C=C/c1ccccc1)C1C2CN3CCC(O2)C13 (stereo not drawn)
> 100 µM

Please look up its TGI: "CCOC(=O)NC(=O)c1cn(CCN2CCN(C(=O)NCCCCCCNC(=O)N3CCN(CCn4cc(C(=O)NC(=O)OCC)c(=O)[nH]c4=O)CC3)CC2)c(=O)[nH]c1=O"
> 100 µM

Any idea what TGI was measured for O=C(COc1ccccc1Cl)N1N=C(c2ccc(Cl)cc2)CC1(O)c1ccccc1 (stereo not drawn) ?
> 100 µM

Quick one: TGI for "Cn1c(=O)nc2n(-c3ccc(O)cc3)c3ccccc3nc-2c1=O" ?
> 100 µM

TGI lookup needed for "c1cc[c]([Sn][c]2ccccc2)cc1" , thanks.
32.7 µM

Recorded TGI of C[C@@H]1OC(=O)C[C@H]2CC(=O)N(CCC3CN(C(=O)OCc4ccccc4)c4ccccc43)C[C@@H]21 (stereo partly drawn) , please.
> 100 µM

// returns reported TGI for input "Cc1c(/C=N/NC(=O)c2ccccc2O)c(=O)n(-c2ccccc2)n1C"
> 100 µM

Requested field: TGI. Item: "Nc1n(CC(=O)c2ccccc2)nc2sc(-c3ccccc3)n[n+]12"
34.4 µM

Sample CSc1ncc2c(n1)C(C#N)C1Sc3ccccc3N1C2=O (stereo not drawn) — what was its TGI?
> 100 µM

// returns reported TGI for input "Cc1ccc2c(c1)-c1nc(N)c(C#N)c(-c3ccc(Cl)cc3)c1CCS2(=O)=O"
> 100 µM

Look up TGI for this molecule: "O=C(Nc1ccccc1F)c1cc2ccc(O)cc2oc1=Nc1cccc(F)c1"
> 100 µM

// returns reported TGI for input "C/C(CC(O)(C(F)(F)F)C(F)(F)F)=N\NC(N)=O"
> 10 µM

What TGI value was documented for this molecule, c1ncn(C23C4C5C6C4C2C6C53)n1 (stereo not drawn) ?
> 100 µM

Report TGI for "FC(F)(F)c1cccc(-c2nc3nc(Cl)c(Cl)nc3[nH]2)c1" please.
4.11 µM

Need TGI of "CC(=O)Nc1ccc2c(C)c3c(nc2n1)[nH]c1ccccc13" , thanks.
53.2 µM

Given the molecule "O=c1[nH]cc(NCCCl)c(=O)[nH]1" , what is its reported TGI?
> 100 µM

Which TGI is listed for COc1cc(C2c3c(ccc4ccccc34)C(=O)C3CCC(=O)N32)cc(OC)c1OC (stereo not drawn) ?
> 50 µM

Sample "O=S(=O)(Nc1ccc(Br)cc1)c1ccc(-c2cnc(C3CC3)o2)cc1" — what was its TGI?
12.9 µM

Give its TGI value. Item: S=C1c2ccc(Cl)cc2-n2cnnc2C2CSCN12 (stereo not drawn)
> 100 µM

Using the record for "CC(C)(C)c1ccc(OCCOc2ccc(C(C)(C)C)cc2N)c(N)c1" , report its TGI.
> 100 µM

Which TGI reading was recorded for the molecule "c1ccc(NN(Cc2cnccn2)c2ccccc2)cc1" ?
> 100 µM

Item under review: CN(C)CC(O)c1ccc(Cl)c2ccccc12 (stereo not drawn) . Reported TGI?
> 100 µM

GET /values?readout=TGI&item= "O=C(O)c1nc(NCc2nc3cc(Cl)ccc3o2)n[nH]1"
> 100 µM

Entry "CC1=C(C(=O)Nc2ccccc2C)C(c2ccc(Cl)cc2)C(C(=O)Nc2ccccc2C)=C(C)N1" : reported TGI = ?
> 100 µM

Recorded TGI of O=C1CC(CC(=O)C2CCCCC2=O)C(=O)N1 (stereo not drawn) , please.
> 100 µM

What TGI value was documented for this molecule, "CCOC(=O)Cc1nc2ccc3c(c2[nH]c1=O)C(=O)c1ccccc1C3=O" ?
> 100 µM

Need TGI of "CCSCCCSCCSCC" , thanks.
> 100 µM

Which value of TGI has been reported for COC(=O)C1=CO[C@@H](OC2CC(CO)C(O)C(O)C2O)[C@@H]2[C@@H](C)[C@@H](OC(=O)/C=C/c3ccccc3)[C@@H](O)[C@H]12 (stereo partly drawn) (tested in a mixture with another compound) in the records?
> 100 µM

Fill in the blank: the reported TGI of "c1ccc(-c2nc(-c3ccccn3)nc(-c3ccccn3)n2)nc1" is ____.
81.8 µM

Report TGI for "COC(=O)Cc1cc(O)c2c(c1O)C(=O)c1ccccc1C2=O" please.
> 100 µM

Fill in: TGI of "O=C(Oc1cccnc1)c1cccnc1Nc1ccnc(C(F)(F)F)c1" is ___
> 100 µM
